Values from patent EP1803452A1

Assay: Metabolic stability test in plasma
Type: in vitro ADME, human
Conditions: unchanged form after 10 minutes at 37°C in human plasma, LC/MS; read-out: Remaining rate in human plasma (%/10min)
Give remaining at 10 min for every item shown.
Numbers only, in %.

These solved cases illustrate the format of a correct answer.
molecule="COC(=O)c1ccc(OC(=O)CCCc2ccc(NC(=O)c3ccccc3-c3ccc(C(F)(F)F)cc3)c(C(=O)N(C)C)c2)cc1Cl [Compound 1-18]" quantity_kind="remaining at 10 min" units=% observed_result=0
molecule="CN(C)C(=O)c1cc(CCCC(=O)Oc2ccc(C(=O)OCCN3CCCC3=O)cc2)ccc1NC(=O)c1ccccc1-c1ccc(C(F)(F)F)cc1 [Compound 1-91]" quantity_kind="remaining at 10 min" units=% observed_result=31
molecule="COC(=O)c1cc(C)c(OC(=O)CCCc2ccc(NC(=O)c3ccc(C)nc3-c3ccc(C(F)(F)F)cc3)c(C(=O)N(C)C)c2)c(C(F)(F)F)c1 [Compound 1-45]" quantity_kind="remaining at 10 min" units=% observed_result=89

Please state remaining at 10 min for every molecule in the list that follows.
1. CN(C)C(=O)c1cc(CCCC(=O)Oc2ccc(C(=O)OCc3ccc(C(=O)OC(C)(C)C)cc3)cc2)ccc1NC(=O)c1ccccc1-c1ccc(C(F)(F)F)cc1 [Compound 1-103]
2. CN(C)C(=O)c1cc(CCCC(=O)Oc2ccc(C(=O)OCC(=O)OCc3ccccc3)cc2)ccc1NC(=O)c1ccccc1-c1ccc(C(F)(F)F)cc1 [Compound 1-78]
3. CC(OC(=O)c1ccc(OC(=O)CCCc2ccc(NC(=O)c3ccccc3-c3ccc(C(F)(F)F)cc3)c(C(=O)N(C)C)c2)cc1)c1ccccc1 (centres unmarked) [Compound 1-106]
4. COC(=O)c1ccc(OC(=O)CCCc2ccc(NC(=O)c3ccccc3-c3ccc(C(=O)OC)cc3)c(C(=O)N(C)C)c2)cc1 [Compound 4-3]

Ans.
1. 99
2. 51
3. 49
4. 0

Qu. Bench note: what remaining at 10 min did CCOc1cc(C(=O)OC)cc(OC)c1OC(=O)CCCc1ccc(NC(=O)c2ccc(C)nc2-c2ccc(C(F)(F)F)cc2)c(C(=O)N(C)C)c1 [Compound 1-49] show?
Ans. 0

====

Assay: Metabolic stability test in liver S9
Assay type: in vitro ADME
Conditions: pH 7.4; unchanged form after 10 minutes at 37°C, human liver S9 2 mg protein/mL, LC/MS; read-out: Remaining rate in human liver S9 (%/10min)
Method: Human liver S9 (final concentration: 2 mg protein/mL), was suspended in 100 mM potassium phosphate buffer (pH 7.4, containing β-nicotinamide adenine dinucleotide phosphate: 1.3 mM, D-glucose-6- phosphate: 3.3 mM, magnesium chloride: 3.3 mM, glucose-6-phosphate dehydrogenase:0.4 U/mL). […] The solutions were centrifuged, and the concentration of the sample (unchanged form) in the supernatant was determined by high performance liquid chromatography/mass spectrometry (LC/MS). […]
QUANTITY_KIND: remaining at 10 min (%)
Give bare numbers, in %.

These solved cases illustrate the format of a correct answer.
cpd_smiles=COc1cc(C(=O)OC(C)C)cc(OC)c1OC(=O)CCCc1ccc(NC(=O)c2ccc(C)nc2-c2ccc(C(F)(F)F)cc2)c(C(=O)N(C)C)c1 observed_result=12
cpd_smiles=COC(=O)c1ccc(OC(=O)CCCc2ccc(NC(=O)c3ccccc3-c3ccc(C(F)(F)F)cc3)c(C(=O)N(C)C)c2)c(C(F)(F)F)c1 observed_result=0
cpd_smiles=COC(=O)c1ccc(OC(=O)CCCc2ccc(NC(=O)c3ccccc3-c3ccc(C(F)(F)F)cc3)c(C(=O)N(C)C)c2)cc1 observed_result=0
cpd_smiles=CN(C)C(=O)c1cc(CCCC(=O)Oc2ccc(C(=O)OCCCOCc3ccccc3)cc2)ccc1NC(=O)c1ccccc1-c1ccc(C(F)(F)F)cc1 observed_result=7
cpd_smiles=COC(=O)c1cc(C)c(OC(=O)CCCc2ccc(NC(=O)c3ccc(C)nc3-c3ccc(C(F)(F)F)cc3)c(C(=O)N(C)C)c2)c(F)c1 observed_result=4

# next molecule below
Qu. Bench note: what remaining at 10 min did `COC(=O)c1ccc(OC(=O)CCCc2ccc(NC(=O)c3ccc(C)nc3-c3ccc(C(F)(F)F)cc3)c(C(=O)N(C)C)c2)cc1` show?
Ans. 0
